System: UACC-62 melanoma
Experiment: NCI-60 one-dose screen, 48 h
Settings: 10 µM unless noted
Compounds without any hit were thinned out: in the full panel of roughly 83,000, 20% have a hit. Active and inactive are the calls of the source. Rule for the calls: active = growth percent below 10; inactive = the rest.
Possible outcomes: active, inactive

molecule	class-name
COc1ccc(-c2nc3c(ncc4ccc(=O)[nH]c43)s2)cc1	inactive
CSc1oc(C)nc1[P+](c1ccccc1)(c1ccccc1)c1ccccc1	inactive
CC(=O)O[C@H]1CC2CCC3C(CC[C@@]4(C)C3C[C@H]([N+]3(C)CCCCC3)[C@@H]4OC(C)=O)[C@@]2(C)C[C@@H]1N1CCCCC1 (some centres undefined)	inactive
COc1cc(-c2nccc3[nH]c(-c4ccc5cc[nH]c5c4)nc23)cc(OC)c1OC	inactive
COC(=O)/C=C1/SC(=Nc2ccc(C(F)(F)F)cc2)N(CCc2c[nH]c3ccc(O)cc23)C1=O	active
N#Cc1c(-c2ccccc2)cc(-c2ccc(Nc3nc(Nc4ccc(Cl)cc4)nc(Nc4ccc(Cl)cc4)n3)cc2)nc1N	inactive
CCOc1nc(-c2ccccc2)cc2c(O)c(C(=O)N/N=C/c3ccccc3)[nH]c(=O)c12	inactive
COc1ccc(C2CC(c3ccc(Nc4nc(Nc5ccccc5)nc(Nc5ccccc5)n4)cc3)=NN2C(C)=O)cc1 (centres undefined)	inactive
COc1ccc(/C=C/C(=O)c2cc3c(N)c(C(=O)Nc4cccc5ccccc45)sc3nc2C)cc1	inactive
CCN(C)S(=O)(=O)Nc1cccc(Nc2ncnc3cc(NC(=O)CCl)ccc23)c1Cl	active
CCN1C(=S)N(c2ccccc2)C2C1NN=c1s/c(=C3\C(=O)N(C(C)C)c4ccccc43)c(=O)n12 (centres undefined)	inactive
COc1ccc(OC)c(/C=N/Nc2ncnc3c2c(C)nn3C)c1	inactive
COc1ccc(C(=O)/C=C/c2c(C(F)(F)F)nc3ccccn23)cc1OC	active
c1ccc(-c2oc(-c3ccccc3)c(CN3CCCCC3)c2CN2CCCCC2)cc1	inactive
O=C(NCCNc1nccc(Nc2ccc(S(=O)(=O)Nc3ccccn3)cc2)n1)c1cccc([N+](=O)[O-])c1	inactive
CN(C)S(=O)(=O)c1cccc(C(=O)Nc2nc(-c3ccc(F)c(F)c3)cs2)c1	inactive
COc1ccc(NC2=C(I)C(=O)c3ncccc3C2=O)cc1	active
Cc1ccc(NC(=O)c2sc3nc(C)c(Br)c(C)c3c2N)cc1	inactive
O=S(=O)(NCCNc1nccc(-c2c(-c3ccc(F)c(O)c3)nc3sccn23)n1)c1ccc(O)cc1	inactive
